target: T1, human CD71 extracellular domain (CD71-ECD) (human, UniProt P02786 89-760); experiment: primary ELISA, RLU ratio to HSA
T1 construct: also called hCD71; human CD71-ECD
T1 sequence (P02786 89-760): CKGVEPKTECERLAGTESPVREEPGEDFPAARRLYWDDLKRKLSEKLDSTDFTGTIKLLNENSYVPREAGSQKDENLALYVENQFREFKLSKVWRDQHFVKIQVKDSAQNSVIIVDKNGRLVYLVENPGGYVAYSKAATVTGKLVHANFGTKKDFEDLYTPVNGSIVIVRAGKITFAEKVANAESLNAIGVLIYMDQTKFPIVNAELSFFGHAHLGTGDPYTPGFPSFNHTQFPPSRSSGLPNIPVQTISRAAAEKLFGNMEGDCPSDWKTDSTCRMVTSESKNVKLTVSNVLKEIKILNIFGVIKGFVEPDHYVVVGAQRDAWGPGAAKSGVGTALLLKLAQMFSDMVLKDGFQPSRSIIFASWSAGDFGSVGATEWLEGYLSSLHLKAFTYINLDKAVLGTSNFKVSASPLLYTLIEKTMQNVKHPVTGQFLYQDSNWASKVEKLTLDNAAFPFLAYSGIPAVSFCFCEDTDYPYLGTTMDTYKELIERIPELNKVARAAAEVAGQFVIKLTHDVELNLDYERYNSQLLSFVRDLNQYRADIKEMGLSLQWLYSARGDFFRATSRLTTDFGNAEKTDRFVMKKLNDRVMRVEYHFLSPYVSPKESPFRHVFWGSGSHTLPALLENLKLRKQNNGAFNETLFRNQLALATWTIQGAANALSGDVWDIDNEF
Listing of recorded hCD71:HSA by entry.
quantity_measured: hCD71:HSA

binder	test_result
CD71-binding FN3 domain SEQ ID NO: 326 (designed binder) MSLPAPKNLVVSRVTEDSARLSWTAPDAAFDSFEIGYWENAYKGEAIVLTVPGSERSYDLTGLKPGTEYWVQIGGVKGGVWSTPLSAIFTT	79
CD71-binding FN3 domain SEQ ID NO: 262 (designed binder) MSLPAPKNLVVSRVTEDSARLSWTAPDAAFDSFFIGYLEPQPPGEVIHLFVPGSERSYDLTGLKPGTEYNVTIQGVKGGFPSDPLVASFTT	529
CD71-binding FN3 domain SEQ ID NO: 282 (designed binder) MSLPAPKNLVVSRVTEDSARLSWTAPDAAFDSFDIGYFELTWYGEAIVLTVPGSERSYDLTGLKPGTEYWVSIGGVKGGRFSEPLYARFTT	240
CD71-binding FN3 domain SEQ ID NO: 234 (designed binder) MSLPAPKNLVVSRVTEDSARLSWTAPDAAFDSFFIGYLEPQPPGEAIALYVPGSERSYDLTGLKPGTEYNVTIQGVKGGFPSEPLVAHFTT	683
CD71-binding FN3 domain SEQ ID NO: 289 (designed binder) MSLPAPKNLVVSRVTEDSARLSWTAPDAAFDSFEIAYFEIAWLGEAIVLTVPGSERSYDLTGLKPGTEYWVQIGGVKGGAYSTPLSAIFTT	77
CD71-binding FN3 domain SEQ ID NO: 315 (designed binder) MSLPAPKNLVVSRVTEDSARLSWTAPDAAFDSFEIGYFENLYLGEAIVLTVPGSERSYDLTGLKPGTEYWVQIGGVKGGNWSAPLSAISTT	41
CD71-binding FN3 domain SEQ ID NO: 295 (designed binder) MSLPAPKNLVVSRVTEDSARLSWTAPDAAFDSFFIGYLEPQPPGEAIDLYVPGSERSYDLTGLKPGTEYNVTIQGVKGGFPSEPLVATFTT	438
CD71-binding FN3 domain SEQ ID NO: 235 (designed binder) MSLPAPKNLVVSRVTEDSARLSWTAPDAAFDSFEIVYAEPVRFGEAIVLTVPGSERSYDLTGLKPGTEYWVQIGGVKGGNWSAPLSAIFTT	376
CD71-binding FN3 domain SEQ ID NO: 324 (designed binder) MSLPAPKNLVVSRITEDSARLSWTAPDAAFDSFEIGYFENLYLGEAIVLTVPGSERSYDLTGLKPGTEYWVQIGGVKGGNWSAPLSAISTT	294
